Cited source: the supplement of paper PMC8960247

- Tested on: 621-102 (TSC2-deficient);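 also: immortalized renal angiomyolipoma cells stably carrying empty vector or TSC2, dosed in 384-well plates in DMEM, viability normalized to vehicle-treated wells within each plate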
- assay info: relative viability vs DMSO; higher = less cytotoxic
- measurement setup: 0.01 µM; serum: 10% FBS; 72 h
Where a name gives a salt, the structure may show the parent alone.
relative viability strictly less than 90% = t. Otherwise f.

[Q] is_below(relative viability, 90%) for CCS(=O)(=O)Nc1ccc2c(c1)/C(=C(/Nc1ccc(CN3CCCCC3)cc1)c1ccccc1)C(=O)N2 ?
[A] t

[Q] Just wondering, is relative viability of CC[C@H]1OC(=O)[C@H](C)[C@@H](O[C@H]2C[C@@](C)(OC)[C@@H](O)[C@H](C)O2)[C@H](C)[C@@H](O[C@@H]2O[C@H](C)C[C@H](N(C)C)[C@H]2O)[C@](C)(OC)C[C@@H](C)C(=O)[C@H](C)[C@@H](O)[C@]1(C)O below 90%?
[A] f

[Q] Say whether its relative viability is strictly beneath 90%. Entry: Oc1cccc(-c2nc(N3CCOCC3)c3oc4ncccc4c3n2)c1
[A] f

[Q] I'd appreciate it if you could check whether Cn1c(N2CCCCS2(=O)=O)nc(C(=O)NCc2ccc(F)cc2)c(O)c1=O has relative viability smaller than 90%.
[A] f

[Q] Determine if CNC(=O)c1cc(Oc2ccc(NC(=O)Nc3ccc(Cl)c(C(F)(F)F)c3)c(F)c2)ccn1 [BAY 73-4506 (Regorafenib)] shows relative viability strictly lower than 90%.
[A] f

[Q] I wonder whether CN1CCN(c2ccc([N+](=O)[O-])c3no[n+]([O-])c23)CC1 has relative viability below 90%. Can you tell?
[A] f

[Q] Item CCN(CC)CCOc1ccc(C(=C(Cl)c2ccccc2)c2ccccc2)cc1 [Clomifene citrate (Serophene)] : relative viability beneath 90%, strictly?
[A] f

[Q] # strict comparison: is reported relative viability < 90%? input = C=CC(=O)Nc1cccc(Sc2nc(Nc3ccc(N4CCN(C)CC4)cc3)ncc2Cl)c1
[A] f

[Q] Input O=C(Cc1ccc(-c2ccc(OCCN3CCOCC3)cc2)cn1)NCc1ccccc1 ; condition: relative viability strictly below 90%. Does it hold?
[A] t

[Q] Is relative viability of O=C1N=C(O)NC1(c1ccccc1)c1ccccc1 [Phenytoin sodium] strictly below 90%?
[A] f

[Q] Is the reported relative viability for O=C1CCc2cc(OCCCCc3nnnn3C3CCCCC3)ccc2N1 strictly below 90%?
[A] f

[Q] Threshold test, relative viability < 90%: FC(F)(F)c1ccc(Nc2nc3ccc(Oc4ccnc(-c5ncc(C(F)(F)F)[nH]5)c4)cc3[nH]2)cc1
[A] f

[Q] relative viability strictly < 90% for this compound? Cc1ccc(-n2nc(C(C)(C)C)cc2NC(=O)Nc2ccc(OCCN3CCOCC3)c3ccccc23)cc1
[A] f

[Q] Quick check: relative viability of COCC[n+]1c2c(n(Cc3cnccn3)c1C)C(=O)c1ccccc1C2=O under 90%?
[A] t

[Q] Please state whether relative viability is below 90% for CC(=O)Nc1ccccc1 [Acetanilide]
[A] f
